Test system: A 204 cells; rhabdomyosarcoma
Experiment: In vitro panel of human tumour lines (TNO): A 204; also: key: -: no inhibition of cell growth; +: total cell-kill
Type: cell-based
Conditions: 1.0 μg/ml, about 72 hours
measure_name: in vitro activity score, A 204

// query Value lookup for in vitro activity score, A 204; key = CO[C@@]12[C@H](COC(N)=O)C3=C(C(=O)C(C)=C(N)C3=O)N1C[C@@H]1N[C@@H]12 [MMC, mitomycin C, reference compound]
// result +

// query Cool, now `CC(=O)OCc1c2c(n(C)c1/C=C/CO)C(=O)C=C(N1CC1)C2=O`
// result +

// query Cool, now CC1CN1C1=CC(=O)c2c(c(CO)c(/C=C/CO)n2C)C1=O (stereo not drawn)
// result -

// query Cool, now `COC1=C(C)C(=O)c2c(c(COC(C)=O)c(/C=C/COC(C)=O)n2C)C1=O`
// result -

// query Cool, now `COC(=O)OC/C=C/c1c(COC(=O)OC)c2c(n1C)C(=O)C=C(OC)C2=O`
// result -

// below: in vitro activity score, A 204 requested for another molecule
// query Value lookup for in vitro activity score, A 204; key = `CC(=O)OC/C=C/c1c(COC(C)=O)c2c(n1C)C(=O)C(C)=C(N1CC1)C2=O`
// result -
